This collection of values is drawn from the supplement of paper PMC10627819.

Test system: S. aureus DSM 20231;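 also: first quartile when negative (synergy) and third quartile when positive (antagonism)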
Assay: Bliss interaction score (quartile over a dose matrix) (fitness difference); higher = more antagonism (negative = synergy)
Bliss interaction score for assorted molecules
Just the number, please, no unit attached.

Sample records with Bliss interaction score:
CO[C@@H]1[C@@H](OC(N)=O)[C@@H](O)[C@H](Oc2ccc3c(O)c(NC(=O)c4ccc(O)c(CC=C(C)C)c4)c(=O)oc3c2C)OC1(C)C [Novobiocin] + CO[C@H]1/C=C/O[C@@]2(C)Oc3c(C)c(O)c4c(O)c(c(/C=N/N5CCN(C)CC5)c(O)c4c3C2=O)NC(=O)/C(C)=C\C=C\[C@H](C)[C@H](O)[C@@H](C)[C@@H](O)[C@@H](C)[C@H](OC(C)=O)[C@@H]1C [Rifampicin] = 0.0573
CC(=O)NC[C@H]1CN(c2ccc(N3CCOCC3)c(F)c2)C(=O)O1 [Linezolid] + CN[C@H](CC(C)C)C(=O)N[C@H]1C(=O)N[C@@H](CC(N)=O)C(=O)N[C@H]2C(=O)N[C@H]3C(=O)N[C@H](C(=O)N[C@H](C(=O)O)c4cc(O)cc(O)c4-c4cc3ccc4O)[C@H](O[C@H]3C[C@](C)(N)[C@@H](O)[C@H](C)O3)c3ccc(c(Cl)c3)Oc3cc2cc(c3O[C@@H]2O[C@H](CO)[C@@H](O)[C@H](O)[C@H]2O[C@H]2C[C@](C)(NCc3ccc(-c4ccc(Cl)cc4)cc3)[C@@H](O)[C@H](C)O2)Oc2ccc(cc2Cl)[C@H]1O [Oritavancin] = -0.0323
CN(Cc1cnc2nc(N)nc(N)c2n1)c1ccc(C(=O)N[C@@H](CCC(=O)O)C(=O)O)cc1 [Methotrexate] + CC1(C)S[C@@H]2[C@H](NC(=O)Cc3ccccc3)C(=O)N2[C@H]1C(=O)O [PenicillinG] = -0.169

For the record CO[C@@H]1[C@@H](OC(N)=O)[C@@H](O)[C@H](Oc2ccc3c(O)c(NC(=O)c4ccc(O)c(CC=C(C)C)c4)c(=O)oc3c2C)OC1(C)C [Novobiocin] + CN(N=O)C(=O)N[C@@H](C=O)[C@@H](O)[C@H](O)[C@H](O)CO [Streptozotocin] , what value of Bliss interaction score is listed for S. aureus DSM 20231?
0.0969

For the record CO[C@@]12[C@H](COC(N)=O)C3=C(C(=O)C(C)=C(N)C3=O)N1C[C@@H]1N[C@@H]12 [MitomycinC] + COc1ccc(CCN(C)CCCC(C#N)(c2ccc(OC)c(OC)c2)C(C)C)cc1OC [Verapamil] , what value of Bliss interaction score is listed for S. aureus DSM 20231?
0.195

For the record CC[C@H]1OC(=O)[C@H](C)[C@@H](O[C@H]2C[C@@](C)(OC)[C@@H](O)[C@H](C)O2)[C@H](C)[C@@H](O[C@@H]2O[C@H](C)C[C@H](N(C)C)[C@H]2O)[C@](C)(O)C[C@@H](C)C(=O)[C@H](C)[C@@H](O)[C@]1(C)O [Erythromycin] + COc1c(N2C[C@@H]3CCCN[C@@H]3C2)c(F)cc2c(=O)c(C(=O)O)cn(C3CC3)c12 [Moxifloxacin] , what value of Bliss interaction score is listed for S. aureus DSM 20231?
0.0532

For the record CC[C@H]1OC(=O)[C@H](C)[C@@H](O[C@H]2C[C@@](C)(OC)[C@@H](O)[C@H](C)O2)[C@H](C)[C@@H](O[C@@H]2O[C@H](C)C[C@H](N(C)C)[C@H]2O)[C@](C)(O)C[C@@H](C)C(=O)[C@H](C)[C@@H](O)[C@]1(C)O [Erythromycin] + CC1=C\[C@@H](O)CC(=O)Cc2nc(co2)C(=O)N2CCC=C2C(=O)O[C@H](C(C)C)[C@H](C)/C=C/C(=O)NC\C=C\1 [Virginiamycin M1] , what value of Bliss interaction score is listed for S. aureus DSM 20231?
0.0769
